assay: chemical genetic growth profiling, strain panel (AID 1159580);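 further: tested at 20 µM; growth read once vehicle control cultures reached saturation at 30 °C; 1 = growth at the plate median or of vehicle wells; lower values mean less growth of the strain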; settings: S. cerevisiae deletion strains, growth OD, locus YOR184W, strain ser1, active compounds read low
The campaign covered roughly 5,500 compounds. About 2,000 (36%) were called active. Not shown: some 18% with an inconclusive outcome. The list shows a part of the results.
Property name: normalized growth
Give bare numbers.

Worked examples, 3 molecules total:
Nc1ccc(S(=O)(=O)Nc2nccs2)cc1	1
O=C(O)c1cc(=O)c2c(OCC(O)COc3cccc4oc(C(=O)O)cc(=O)c34)cccc2o1	1.03
NC(=O)c1cnccn1	1

Hello, I would appreciate it if you could give normalized growth for each entry below.
1. COc1ccccc1-c1cc(=O)c2cccc(OC)c2o1
2. COc1ccccc1-c1cc(=O)c2c(OC)cccc2o1
3. CC[C@]12CCCN3CCc4c(n(c5ccccc45)[C@](O)(C(=O)OC)C1)[C@@H]32

Output:
[0.758, 0.837, 0.98]

* * *

test: chemical genetic growth profiling, strain panel (AID 1159580); conditions: S. cerevisiae deletion strains, growth OD, locus YNL161W, strain CBK1, active compounds read low
Out of some 5,500 compounds screened, about 2,000 (36%) were called active. Another 18% or so got no clear call; they are omitted. Some of the results follow.
Property name: normalized growth
Numbers only.

Worked examples, 10 compounds total:
CC(C)(O)C#Cc1ccc(/C=N\Nc2ccccc2)cc1	0.954
Clc1ccc(-c2noc(CSC3=NCCN3)n2)cc1	0.965
CCC1CCC(C)N(C(=S)Nc2ccc(Br)cc2C)C1 (stereo unspecified)	0.948
COc1cc(C(=O)Oc2c(Cl)cc(Cl)cc2C=Nc2cccc([N+](=O)[O-])c2)cc(OC)c1OC	0.982
C/C(=N/OC(=O)Nc1ccc(Cl)cc1)c1ccc2c(c1)CCO2	0.951
CC1(C)C/C(=N/Nc2ccc(C(F)(F)F)cc2)c2cc(C(C)(C)C)c(O)c(O)c2O1	0.976
COCCOc1ccccc1NC(=S)SCCSC(=S)Nc1ccccc1OCCOC	0.984
O=C(CCSc1cccs1)Nc1cccc(C(F)(F)F)c1	0.918
Cc1cc(C(=O)O/N=C(/N)c2ccc(C(C)(C)C)cc2)no1	0.983
N/C(=N/OC(=O)c1ccc(Cl)cc1)c1ccc(F)cc1F	0.894

Hello, I would appreciate it if you could give normalized growth for each entry below.
1. CC(=O)C(Sc1nc2ccccc2s1)C(C)=O
2. COc1cc(C(=O)Oc2c(Cl)cc(Cl)cc2C=Nc2ccc([N+](=O)[O-])cc2C#N)cc(OC)c1OC

Output:
[0.906, 0.98]

Hello, I would appreciate it if you could give normalized growth for each entry below.
1. COc1cc(C(=O)Oc2c(Cl)cc(Cl)cc2C=Nc2cccc(C(F)(F)F)c2)cc(OC)c1OC
2. CC(C)(O)C#Cc1ccc(/C=N\Nc2c(Cl)cc(Cl)cc2Cl)cc1
3. COc1cc(N=Cc2cc(Cl)cc(Cl)c2OC(=O)c2cc(OC)c(OC)c(OC)c2)c(OC)cc1Cl
4. CCOC(=O)c1c(N=Cc2cc(Br)c(Br)cc2O)sc2c1CCCC2

Output:
1. 0.977
2. 0.98
3. 0.98
4. 0.981

* * *

test: chemical genetic growth profiling, strain panel (AID 1159580);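 further: tested at 20 µM; growth read once vehicle control cultures reached saturation at 30 °C; 1 = growth at the plate median or of vehicle wells; lower values mean less growth of the strain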; settings: S. cerevisiae deletion strains, growth OD, locus YDR334W, strain swr1, active compounds read low
The whole screen tested about 5,500 compounds, of which about 2,000 (36%) were called active. About 18% were inconclusive and are not listed. This is one part of the list.
Property name: normalized growth
One number for each entry.

Worked examples, 4 compounds total:
NC(=O)c1cnccn1	0.98
CC[C@]12CCCN3CCc4c(n(c5ccccc45)[C@](O)(C(=O)OC)C1)[C@@H]32	0.975
CC1(C)O[C@@H]2CC3C4CCC5=CC(=O)C=C[C@]5(C)C4[C@@H](O)C[C@]3(C)[C@]2(C(=O)CO)O1 (some centres undefined)	1.01
CN(Cc1cc(Br)cc(Br)c1N)C1CCCCC1	1.03

Hello, I would appreciate it if you could give normalized growth for each entry below.
1. COc1ccc(-c2cc(C(F)F)nn2-c2ccc(S(N)(=O)=O)cc2)cc1F
2. CC1=CC(=O)CC(C)(C)C1(O)/C=C/C(C)=C\C(=O)O (centres undefined)
3. N[C@@H](CCC(=O)N[C@@H](CCSC(CC(=O)O)C(=O)O)C(=O)NCC(=O)O)C(=O)O (some centres undefined)
4. O=C(O)CNCP(=O)(O)O

Output:
1. 1.02
2. 1.02
3. 1
4. 1.03

Input: Quickly give me recorded normalized growth for `c1cc2c(cc1[C@H]1OC[C@H]3[C@@H]1CO[C@H]3c1ccc3c(c1)OCO3)OCO2`
Output: 0.861

* * *

test: chemical genetic growth profiling, strain panel (AID 1159580);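 further: tested at 20 µM; growth read once vehicle control cultures reached saturation at 30 °C; 1 = growth at the plate median or of vehicle wells; lower values mean less growth of the strain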; settings: S. cerevisiae deletion strains, growth OD, locus YOR270C, strain vph1, active compounds read low
Hit rate of the full screen: of about 5,500 compounds, about 2,000 (36%) were called active. Not shown: some 18% with an inconclusive outcome. This is one part of the list.
Field 'label' (enum: YES / NO). Set to YES when normalized growth is strictly under 1; else NO.

The examples below pair each entry with its known result.
CC1(C)C2CC(=O)O[C@@]3(C)C4=CC(=O)O[C@@H](c5ccoc5)[C@]4(C)CCC3[C@@]2(C)C=C[C@H]1O (stereo not given in full)	YES
CC(COc1ccccc1)N(CCCl)Cc1ccccc1 (stereo not given)	YES
CC[C@@H]1[C@@H](O)N2C3C[C@H]1C1C(O)[C@]4(C[C@@H]12)c1ccccc1N(C)[C@@H]34 (stereo not given in full)	NO

Input: Consider `COP(=S)(OC)Oc1ccc(SC)c(C)c1` . Does its normalized growth lie strictly below 1?
Output: YES

* * *

assay: chemical genetic growth profiling, strain panel (AID 1159580);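 further: tested at 20 µM; growth read once vehicle control cultures reached saturation at 30 °C; 1 = growth at the plate median or of vehicle wells; lower values mean less growth of the strain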; details: S. cerevisiae deletion strains, growth OD, locus YGL240W, strain doc1, active compounds read low
Out of some 5,500 compounds screened, about 2,000 (36%) were called active. Not shown: some 18% with an inconclusive outcome. The list shows a part of the results.
Property name: normalized growth
Answers are plain numbers.

Worked examples, 2 molecules total:
CC[C@]12CCCN3CCc4c(n(c5ccccc45)[C@](O)(C(=O)OC)C1)[C@@H]32	1.02
CC(=O)O[C@H]1C[C@@H](OC(C)=O)C(C)(C)C2C[C@@H](OC(C)=O)[C@]3(C)C(CC[C@@]4(C)[C@H](c5ccoc5)C(=O)[C@H]5O[C@]543)[C@]21C (some centres not stated)	1.01

Hello, I would appreciate it if you could give normalized growth for each entry below.
1. CC(Cc1ccc(O)c(O)c1)(NN)C(=O)O (configuration not stated)
2. COc1ccc(/C=C/c2cc(O)cc(O)c2)cc1
3. COS(C)(=O)=O
4. Cc1ccc(C(C)C)cc2c(C)ccc1-2
5. C[C@@H]1C[C@@H]([C@H](O)CC2CC(=O)NC(=O)C2)C(=O)[C@@H](C)C1
6. CCC(COC(=O)c1cc(OC)c(OC)c(OC)c1)(c1ccccc1)N(C)C (configuration not stated)
7. O=C(O)c1cc(=O)c2c(OCC(O)COc3cccc4oc(C(=O)O)cc(=O)c34)cccc2o1

Output:
1: 1; 2: 1; 3: 0.957; 4: 1.01; 5: 0.0796; 6: 0.972; 7: 0.959

Hello, I would appreciate it if you could give normalized growth for each entry below.
1. C=CC1=C(C)/C(=C/c2[nH]c(Cc3[nH]c(/C=C4\NC(=O)C(C)=C4C=C)c(C)c3CCC(=O)O)c(CCC(=O)O)c2C)NC1=O
2. CCOc1ccc2c(c1)C(C)=CC(C)(C)N2
3. CN1CCc2cccc3c2C1Cc1ccc(O)c(O)c1-3 (configuration not stated)
4. Nc1nc(N)c2nc(CNc3ccc(C(=O)NC(CCC(=O)O)C(=O)O)cc3)cnc2n1 (configuration not stated)
5. NC(=O)c1cc[n+](CC2=C(C(=O)O)N3C(=O)C(NC(=O)C(c4ccccc4)S(=O)(=O)[O-])C3SC2)cc1 (configuration not stated)

Output:
1: 1.02; 2: 0.985; 3: 0.929; 4: 1.03; 5: 0.997

Hello, I would appreciate it if you could give normalized growth for each entry below.
1. OC1CCCCC1N1CCC(c2ccccc2)CC1 (configuration not stated)
2. CS(=O)(=O)OCCCCOS(C)(=O)=O
3. NC(=O)N/N=C\c1ccc([N+](=O)[O-])o1
4. CC1=C(/C=C/C(C)=C/C=C/C(C)=C/C(=O)O)C(C)(C)CCC1
5. CCCN(CCC)CCc1cccc2c1CC(=O)N2
6. O=C1N=C(O)CN1/N=C\c1ccc(-c2ccc([N+](=O)[O-])cc2)o1

Output:
1. 1.01
2. 1.05
3. 0.952
4. 0.992
5. 0.991
6. 0.977

Hello, I would appreciate it if you could give normalized growth for each entry below.
1. O=C(O)P(=O)(O)O
2. CC[C@@H]1[C@@H](O)N2C3C[C@H]1C1C(O)[C@]4(C[C@@H]12)c1ccccc1N(C)[C@@H]34 (some centres not stated)
3. C#C[C@]1(O)CCC2C3CCc4cc(O)ccc4C3CC[C@@]21C (some centres not stated)
4. COc1ccc(C[C@H](N)C(=O)N[C@@H]2[C@@H](CO)OC(n3cnc4c(N(C)C)ncnc43)[C@@H]2O)cc1 (some centres not stated)
5. CC[C@@H](C(=O)[C@@H](C)[C@@H](O)[C@H](C)[C@@H]1O[C@@H]([C@@H](CC)C(=O)O)CC[C@@H]1C)[C@H]1OC2(C=C[C@@H](O)[C@]3(CC[C@@](C)([C@H]4CC[C@](O)(CC)[C@H](C)O4)O3)O2)[C@H](C)C[C@@H]1C (some centres not stated)

Output:
[0.964, 0.979, 0.918, 0.987, 1]

Hello, I would appreciate it if you could give normalized growth for each entry below.
1. CC1=C(/C=C/C(C)=C/C=C/C(C)=C\C(=O)O)C(C)(C)CCC1
2. NC(=O)c1ccc(N)nc1
3. Cc1cccc(CN2CCN(C(c3ccccc3)c3ccc(Cl)cc3)CC2)c1 (configuration not stated)
4. Oc1ccc(/C=C/c2cc(O)cc(O)c2)cc1

Output:
0.958
1
0.951
1

Hello, I would appreciate it if you could give normalized growth for each entry below.
1. COc1ccc2c(c1O)-c1c(OC)c(OC)cc3c1[C@H](C2)N(C)CC3
2. COc1cc(C)c2c(c1C=O)Oc1c(c(C)c(O)c3c1C(O)OC3=O)OC2=O (configuration not stated)

Output:
0.996
1.08

Hello, I would appreciate it if you could give normalized growth for each entry below.
1. CCOC(=O)c1ccc(N)cc1
2. C#C[C@]1(O)CCC2C3CCc4cc(OC)ccc4C3CC[C@@]21C (some centres not stated)
3. CCOP(=S)(OCC)Oc1ccc2c(C)c(Cl)c(=O)oc2c1
4. O=C(O)c1cc(=O)c(O)c2c(O)c(O)c(O)cc2c1
5. S=c1[nH]c2ccccc2s1
6. C[C@H](COc1ccccc1)N[C@H](C)[C@H](O)c1ccc(O)cc1
7. O=C1CN(/N=C\c2ccc([N+](=O)[O-])o2)C(=O)N1

Output:
1: 0.996; 2: 0.963; 3: 0.933; 4: 0.869; 5: 0.923; 6: 0.988; 7: 0.922

Hello, I would appreciate it if you could give normalized growth for each entry below.
1. O=C(O)CCC(=O)c1ccc(-c2ccccc2)cc1
2. CCOC(=O)C1=C[C@]2(CC)CCCN3CCc4c(n1c1ccccc41)[C@@H]32
3. Nc1nc2c(c(=O)[nH]1)N(C=O)C(CNc1ccc(C(=O)N[C@@H](CCC(=O)O)C(=O)O)cc1)CN2 (some centres not stated)
4. CCCN(CCC)C(=O)C(CCC(=O)O)NC(=O)c1ccccc1 (configuration not stated)

Output:
1: 0.929; 2: 1.03; 3: 0.94; 4: 0.987
